- Tested on: Aspergillus fumigatus
- assay-text: Antifungal activity against Aspergillus fumigatus ATCC 90906 by CLSI method
- Type: functional, organism-based
Lab note: cut-off is 5 µg/mL. Strictly less in MIC is condition met. Exactly 5 µg/mL or more is condition not met.

>  <smiles-data>
C[n+]1c2ccccc2cc2sc3cc(Cl)ccc3c21.[I-]

>  <classification>
condition not met

$$$$
>  <smiles-data>
C[n+]1c2ccc(Cl)cc2cc2sc3ccccc3c21.[I-]

>  <classification>
condition met

$$$$
>  <smiles-data>
C[n+]1c2c(Cl)cccc2cc2sc3ccccc3c21.O=S(=O)([O-])C(F)(F)F

>  <classification>
condition not met

$$$$
>  <smiles-data>
COc1ccc2sc3cc4ccccc4[n+](C)c3c2c1.[I-]

>  <classification>
condition not met

$$$$
>  <smiles-data>
COc1cccc2c1cc1sc3ccccc3c1[n+]2C.[I-]

>  <classification>
condition met

$$$$
>  <smiles-data>
COc1ccc2cc3sc4ccccc4c3[n+](C)c2c1.O=S(=O)([O-])C(F)(F)F

>  <classification>
condition met

$$$$
>  <smiles-data>
[I-].c1ccc(Sc2cc3ccccc3[n+](CCCCCC3CCCCC3)c2)cc1

>  <classification>
condition not met

$$$$
>  <smiles-data>
C[C@@H]1[C@H](O)[C@@H](C)/C=C/C=C/C=C/C=C/C=C/C=C/C=C/[C@H](O[C@@H]2O[C@H](C)[C@@H](O)[C@H](N)[C@@H]2O)C[C@@H]2O[C@](O)(C[C@@H](O)C[C@@H](O)[C@H](O)CC[C@@H](O)C[C@@H](O)CC(=O)O[C@H]1C)C[C@H](O)[C@H]2C(=O)O

>  <classification>
condition met

$$$$
>  <smiles-data>
COc1ccc2c(c1)sc1cc3ccccc3[n+](C)c12.[I-]

>  <classification>
condition met

$$$$
>  <smiles-data>
C[n+]1c2ccccc2cc2sc3c(Cl)cccc3c21.[I-]

>  <classification>
condition not met

$$$$
>  <smiles-data>
COc1cccc2c1cc1sc3ccccc3c1[n+]2C.O=S(=O)([O-])C(F)(F)F

>  <classification>
condition met

$$$$
>  <smiles-data>
C[n+]1c2ccccc2cc2sc3ccccc3c21.O=S(=O)([O-])C(F)(F)F

>  <classification>
condition not met

$$$$
>  <smiles-data>
[I-].c1ccc(CCCCC[n+]2cc(Sc3ccccc3)cc3ccccc32)cc1

>  <classification>
condition met

$$$$
>  <smiles-data>
C[n+]1c2ccccc2cc2sc3ccccc3c21.[I-]

>  <classification>
condition not met

$$$$
>  <smiles-data>
C[n+]1c2cccc(Cl)c2cc2sc3ccccc3c21.O=S(=O)([O-])C(F)(F)F

>  <classification>
condition not met

$$$$
